Molecular target: beta-catenin (Homo sapiens)
Construct: made in house; host or cells: E. coli BL21 (DE3) pLysS
Sequence (P35222 134-665): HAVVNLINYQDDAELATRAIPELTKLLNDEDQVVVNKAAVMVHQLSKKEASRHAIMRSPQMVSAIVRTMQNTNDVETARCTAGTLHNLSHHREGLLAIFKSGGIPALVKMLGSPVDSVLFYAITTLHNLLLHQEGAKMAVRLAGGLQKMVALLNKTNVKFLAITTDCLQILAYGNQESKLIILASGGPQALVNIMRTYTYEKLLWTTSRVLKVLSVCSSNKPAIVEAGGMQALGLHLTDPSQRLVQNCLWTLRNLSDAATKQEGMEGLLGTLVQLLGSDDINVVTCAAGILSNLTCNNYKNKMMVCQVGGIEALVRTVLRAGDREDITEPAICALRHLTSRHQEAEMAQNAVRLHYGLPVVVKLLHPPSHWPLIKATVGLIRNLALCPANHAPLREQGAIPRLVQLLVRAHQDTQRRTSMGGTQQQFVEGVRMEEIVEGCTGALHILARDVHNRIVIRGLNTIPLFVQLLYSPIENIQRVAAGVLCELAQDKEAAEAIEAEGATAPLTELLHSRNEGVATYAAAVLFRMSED
Experiment: Phage Library Screening with NGS, beta-catenin
Type: binding
Details: BLANK, third column
Metric Name: Target Concentration BLANK (phage screen NGS readout)

P. DPAEHDCMLAAHFCRHF
Q. DPAWWQCDHAALICIAE
Which value of Target Concentration BLANK (phage screen NGS readout) is numerically greater: that of P or that of Q ? Your answer should be the label attached to the chosen record.
Q

----------
Biological target: RNF31 PUB domain (Homo sapiens)
Construct: MBP-TEV (N, cleaved yes); made in house; host or cells: E. coli BL21 (DE3) pLysS
Sequence (Q96EP0 1-179): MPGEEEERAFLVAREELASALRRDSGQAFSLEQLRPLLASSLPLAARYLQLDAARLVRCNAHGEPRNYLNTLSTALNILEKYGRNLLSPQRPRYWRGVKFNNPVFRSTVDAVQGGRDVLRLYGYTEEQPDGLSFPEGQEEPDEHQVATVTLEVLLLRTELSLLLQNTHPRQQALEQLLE
Experiment: Phage Library Screening with NGS, RNF31 PUB domain
Type: binding
Details: RNF31 PUB domain clusters C41-C45; target concentration 30
Metric Name: Phage library screen NGS readout, Target Concentration 30

DPAEDECDWAALYCDMQ = 0

A. DPAWDYCMYAAYDCNHS
B. DPAYSLCISAAVECTYY
C. DPAEDECQDAAILCSYN
Provide the items ranked by increasing Phage library screen NGS readout, Target Concentration 30. Response format: the labels, sorted as the prompt asks.
A, B, C
(A: 0, B: 1, C: 3)

I. DPAMQECMDAAIMCTYA
II. DPAWWSCMYAAWTCDDT
Hey, between I and II which has a smaller measured Phage library screen NGS readout, Target Concentration 30? Your answer should be the label attached to the chosen record.
I
(I: 0, II: 10)

----------
Target: beta-catenin (Homo sapiens, UniProt P35222)
Construct: made in house; host or cells: E. coli BL21 (DE3) pLysS
Sequence (P35222 134-665): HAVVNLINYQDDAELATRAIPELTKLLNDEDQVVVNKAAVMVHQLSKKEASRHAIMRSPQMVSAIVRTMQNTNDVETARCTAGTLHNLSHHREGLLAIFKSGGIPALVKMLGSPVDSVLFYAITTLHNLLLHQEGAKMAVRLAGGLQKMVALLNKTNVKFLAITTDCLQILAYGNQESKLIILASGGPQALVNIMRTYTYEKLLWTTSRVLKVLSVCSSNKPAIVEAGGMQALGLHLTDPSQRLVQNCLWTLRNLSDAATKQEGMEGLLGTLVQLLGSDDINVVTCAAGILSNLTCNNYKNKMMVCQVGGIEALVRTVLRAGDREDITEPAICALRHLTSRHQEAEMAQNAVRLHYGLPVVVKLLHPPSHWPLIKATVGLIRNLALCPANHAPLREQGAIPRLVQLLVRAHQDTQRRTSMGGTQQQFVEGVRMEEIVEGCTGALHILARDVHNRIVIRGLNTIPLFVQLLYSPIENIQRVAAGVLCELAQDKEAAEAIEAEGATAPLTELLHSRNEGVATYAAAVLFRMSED
Assay: Phage Library Screening with NGS, beta-catenin
Format: binding
Details: BLANK, third column
Metric Name: Target Concentration BLANK (phage screen NGS readout)

Worked cases, answers included:
DPAVMACYEAAFQCAYW = 1
DPAILDCQLAAIDCVYT = 0
DPADNECILAAHICTLA = 0
DPADTECILAAHFCHYF = 0
DPAEWDCMHAALICEVH = 0

1. DPADWICEHAALTCQEF
2. DPAILNCHMAAWDCNFY
Hey, between 1 and 2 which has a smaller measured Target Concentration BLANK (phage screen NGS readout)? Your answer should be the label attached to the chosen record.
1
(1: 0, 2: 1)

a. DPAILTCYEAAFTCQYQ
b. DPAIIRCYEAAFYCQNY
c. DPAIADCDWAAEHCDLL
d. DPAHWRCEHAALLCWYN
Arrange by Target Concentration BLANK (phage screen NGS readout), high to low. Response format: the labels, sorted as the prompt asks.
c, d, b, a

1. DPAEADCMMAAHICSNI
2. DPADDFCMWAAEHCELL
3. DPAYWDCTHAALLCNLD
Arrange by Target Concentration BLANK (phage screen NGS readout), high to low. Response format: the labels, sorted as the prompt asks.
3, 2, 1

1. DPAADDCVLAAHVCAYF
2. DPAVIQCYQAAFHCDYQ
3. DPAYWVCEHAALLCTDY
Provide the items ranked by increasing Target Concentration BLANK (phage screen NGS readout). Response format: the labels, sorted as the prompt asks.
1, 3, 2

P. DPAELACEWAAIHCELV
Q. DPAFLTCHIAAWACSEQ
Which value of Target Concentration BLANK (phage screen NGS readout) is numerically greater: that of P or that of Q ? Your answer should be the label attached to the chosen record.
Q
(Q: 1, P: 0)

----------
Biological target: beta-catenin (Homo sapiens, UniProt P35222)
Construct: made in house; host or cells: E. coli BL21 (DE3) pLysS
Sequence (P35222 134-665): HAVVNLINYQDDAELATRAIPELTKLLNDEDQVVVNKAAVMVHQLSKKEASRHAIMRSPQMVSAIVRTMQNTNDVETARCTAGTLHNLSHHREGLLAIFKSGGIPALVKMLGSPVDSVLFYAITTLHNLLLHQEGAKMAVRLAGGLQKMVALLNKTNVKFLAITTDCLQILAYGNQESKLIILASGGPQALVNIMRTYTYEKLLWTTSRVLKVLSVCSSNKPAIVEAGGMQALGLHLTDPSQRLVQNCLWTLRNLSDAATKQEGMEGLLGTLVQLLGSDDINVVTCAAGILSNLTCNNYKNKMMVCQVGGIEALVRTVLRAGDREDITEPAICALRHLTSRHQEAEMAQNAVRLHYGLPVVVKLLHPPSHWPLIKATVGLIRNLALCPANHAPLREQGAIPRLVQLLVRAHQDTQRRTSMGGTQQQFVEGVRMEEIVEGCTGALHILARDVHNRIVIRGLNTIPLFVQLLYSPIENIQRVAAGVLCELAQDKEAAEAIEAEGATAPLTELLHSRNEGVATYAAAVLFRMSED
Experiment: Phage Library Screening with NGS, beta-catenin
Assay type: binding
Settings: beta-catenin target concentration 30; no competitor
Metric Name: Target Concentration 30 (phage screen NGS readout)

Worked cases, answers included:
DPADWICEHAALTCQEF = 2
DPADTECILAAHFCHYF = 1

P. DPAEIICYEAAFLCQYQ
Q. DPAILQCYEAAFSCHYQ
Which value of Target Concentration 30 (phage screen NGS readout) is numerically greater: that of P or that of Q ? Your answer should be the label attached to the chosen record.
Q
(Q: 9, P: 0)

P. DPAEWICEHAALLCSVL
Q. DPAQNICEWAALHCDLI
Hey, between P and Q which has a smaller measured Target Concentration 30 (phage screen NGS readout)? Your answer should be the label attached to the chosen record.
P

P. DPAIIHCYQAAFQCQYM
Q. DPAWSDCIWAAEHCQLI
Which value of Target Concentration 30 (phage screen NGS readout) is numerically greater: that of P or that of Q ? Your answer should be the label attached to the chosen record.
Q
(Q: 3, P: 0)

----------
biological target: WWP1 (Homo sapiens); construct: GST-TEV (N, cleaved yes); made in house; host or cells: Escherichia coli BL21 (DE3); experiment: Naive Library Presenter Screening (phage, NGS), WWP1 (construct not given); assay type: binding; settings: WWP1 target concentration 30 nM
Numbered stars: 1 amine (or outer) side, 2 acyl side, 3 side chain; on linkers, the order of the positions; unused ones are H or OH. Bridge positions count the residues as written; N and C are the ends. Ends that are not written are not given here. Phenylene(1,4-NHCOCH2)2 = O=C(C[*:1])Nc1ccc(NC(=O)C[*:2])cc1
Readings of interaction data at Target Concentration 30 for the listed sequences
Answer with the value's number alone.

DPAFLTCTLAASLCHQD (linker 7-14 via Phenylene(1,4-NHCOCH2)2) = 0
DPAIFDCEFAAHVCSVL (linker 7-14 via Phenylene(1,4-NHCOCH2)2) = 26
DPAWMACAWAANLCHSS (linker 7-14 via Phenylene(1,4-NHCOCH2)2) = 18
DPAIQRCSTAAQVCRYL (linker 7-14 via Phenylene(1,4-NHCOCH2)2) = 6
DPALQTCMDAAQVCRLL (linker 7-14 via Phenylene(1,4-NHCOCH2)2) = 0

Now examine the next entry.
Query: interaction data at Target Concentration 30; subject: DPATHVCTTAA VMCHQT (DPATHVCTTAAVMCHQT; not fully specified; cysteine pairing not given here)
0
